# System: L1210 leukemia ip in BDF1 mice, survival T/C
# assayText: NCI In Vivo Anticancer Drug Screen. Data for tumor model L1210 Leukemia (intraperitoneal) in B6D2F1 (BDF1) mice
# conditionInfo: endpoint: mean survival time; dose: 100.0 mg/kg/injection; schedule: Q01DX009 (ip); vehicle: Klucel (hydroxypropylcellulose) (HPC); higher = longer survival
Toxic doses and inconclusive results are not listed.
In this section, each of the compounds is paired with its reported T/C.

>  <compound>
Cc1ccn(C(N)=O)n1

>  <T/C>
107 % of control

$$$$
>  <compound>
O=C(Nc1ccc(Cl)cc1[N+](=O)[O-])N1CCN(c2ccccc2)CC1

>  <T/C>
101 % of control

$$$$
>  <compound>
Cc1ccc(NC(=O)COc2ccc(Cl)cc2)cc1Cl

>  <T/C>
94 % of control

$$$$
>  <compound>
CCOC(=O)C(=O)Nc1ncn[nH]1

>  <T/C>
96 % of control

$$$$
>  <compound>
C/C(=N/N=C(/C)c1ccccc1)c1ccccc1

>  <T/C>
96 % of control

$$$$
>  <compound>
COc1ccc(NC(=O)Oc2ccc(Cl)cc2C)c(OC)c1

>  <T/C>
104 % of control

$$$$
>  <compound>
CCCCNC(C)(C)C1(c2ccc(Cl)cc2)SSC(c2ccc(Cl)cc2)(C(C)(C)NCCCC)SS1 (stereo not drawn)

>  <T/C>
99 % of control

$$$$
>  <compound>
NC(=O)NCC(=O)O

>  <T/C>
100 % of control

$$$$
>  <compound>
c1ccc2c(CCc3ccncc3)cccc2c1

>  <T/C>
103 % of control

$$$$
>  <compound>
Cc1ccc(NC(=O)CCC(=O)O)cc1[N+](=O)[O-]

>  <T/C>
97 % of control

$$$$
>  <compound>
CC1CC(NC(=S)NC(=O)c2ccc(Cl)cc2Cl)CC(C)(C)C1 (stereo not drawn)

>  <T/C>
91 % of control

$$$$
>  <compound>
CCCCOc1ccc(C=Nc2ccc(C)cc2)cc1

>  <T/C>
93 % of control

$$$$
>  <compound>
COc1ccc(CC(C(=O)O)C(Cc2ccc(OC)c(OC)c2)C(=O)O)cc1OC (stereo not drawn)

>  <T/C>
104 % of control

$$$$
